# target-or-test-system: OsWOX13 (Oryza sativa, UniProt Q5QMM3 1-267)
# Sequence: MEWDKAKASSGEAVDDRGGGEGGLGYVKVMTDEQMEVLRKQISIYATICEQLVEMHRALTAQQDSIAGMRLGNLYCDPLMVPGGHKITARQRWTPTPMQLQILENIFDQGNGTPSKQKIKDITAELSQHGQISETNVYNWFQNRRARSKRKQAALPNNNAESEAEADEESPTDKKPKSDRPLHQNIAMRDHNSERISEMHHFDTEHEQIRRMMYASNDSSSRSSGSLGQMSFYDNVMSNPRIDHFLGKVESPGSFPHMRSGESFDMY
# test-method-notes: protein-binding microarray (RPBM); PBS, 2% BSA, 51.3 ng/ul salmon testes DNA, 50 uM zinc acetate, 200 nM TF, 25 C, 1 h; high values mean tight binding
# condition-description: protein: recombinant; tags: N-terminal polyhistidine and DsRed monomer fusion (pET32a); label: CyDye5-dUTP incorporated in the synthesized complementary strand; 3' TTTTT single-stranded linker to array surface; dsDNA, one strand shown
Whole data set: some 35,000 sequences, median “fluorescence intensity (a.u.)” near 10,000, cut for the highest 2% near 52,000. The sample as a whole holds a higher share of the highest values than the screen did.
Would you kindly list binding signal for each of these sequences?

Completed entries (count: 10):
INSERT INTO results (polymer_sequence, measured_parameter, recorded_value) VALUES
  ('ATTTAATAGTATTAAACGTAGATTACTGATAAAACCTATTCGGAGTCACCTAGTGCAG', 'binding signal', '4260 fluorescence intensity (a.u.)'),
  ('CGCTAAAATTAAAAGTTTGATTGAAATTAGAACGATGTAACGGAGTCACCTAGTGCAG', 'binding signal', '30300 fluorescence intensity (a.u.)'),
  ('CCGGATTTCAGTTATTTCCTAATTGCATTTCTATATGGACCGGAGTCACCTAGTGCAG', 'binding signal', '9320 fluorescence intensity (a.u.)'),
  ('TGGATTAAACTAATTTACTGATAAGGTGCGTACAAAATTGCGGAGTCACCTAGTGCAG', 'binding signal', '9850 fluorescence intensity (a.u.)'),
  ('CTACTGATTGTATTGATTGGGTAGCTGGATTGAAGTTAATCGGAGTCACCTAGTGCAG', 'binding signal', '57000 fluorescence intensity (a.u.)'),
  ('TCCACCGCGACATGTGATTGGAGGTAAGAGCATGTGAACCCGGAGTCACCTAGTGCAG', 'binding signal', '5650 fluorescence intensity (a.u.)'),
  ('TTGTGATTTGTTAGAATTGTATTTTACAATGTGTAGTATGCGGAGTCACCTAGTGCAG', 'binding signal', '39800 fluorescence intensity (a.u.)'),
  ('TTGTAAAATTATATTTATTTAAGATGAAGGGAGTACTATCCGGAGTCACCTAGTGCAG', 'binding signal', '4920 fluorescence intensity (a.u.)'),
  ('GTCATCATTGATTGATATGATTTTGTATGTGTGAGCAATGCGGAGTCACCTAGTGCAG', 'binding signal', '59400 fluorescence intensity (a.u.)'),
  ('AAGATTTGTCTCATAAATTAGTCGCAATATGTGTAATTAGCGGAGTCACCTAGTGCAG', 'binding signal', '7560 fluorescence intensity (a.u.)');

Dear colleague, could you please provide binding signal for the sequences listed below?
1. GTCTCTGTCTCTCGCTCTGATTGAAGTGTTCTGCTGCCATCGGAGTCACCTAGTGCAG
2. TTAAATATAGTTAATTAAACTAGCTAGCTCCTCCGATCCTCGGAGTCACCTAGTGCAG
3. GATAATGATATGACCATGGTGATTTCGTCAATCTCAATACCGGAGTCACCTAGTGCAG
4. GCTGACGTAGATAATCTTATGCTTTCAAATTTTACGATAGCGGAGTCACCTAGTGCAG
5. CGTTAATCGTTGTGATTGATGTCGGATATGTTTGCCACCACGGAGTCACCTAGTGCAG
6. TGCTAATGGCGGCCATAGATTTGTACAAGTATCAGCTGAGCGGAGTCACCTAGTGCAG
7. ATCTTAATTTACCTTTCACTGCATCTAATATGTCACTTTGCGGAGTCACCTAGTGCAG
8. TCTAAACTAATCTAATCTAGCAACGCGATTTAGCCGATACCGGAGTCACCTAGTGCAG

["20400 fluorescence intensity (a.u.)", "12800 fluorescence intensity (a.u.)", "12100 fluorescence intensity (a.u.)", "5670 fluorescence intensity (a.u.)", "58600 fluorescence intensity (a.u.)", "4480 fluorescence intensity (a.u.)", "20700 fluorescence intensity (a.u.)", "9190 fluorescence intensity (a.u.)"]

Dear colleague, could you please provide binding signal for the sequences listed below?
1. CCCTCAATCAGCTGGTCGGCTGGTCGCACACACCACGTTCCGGAGTCACCTAGTGCAG
2. GGGTGCTGAAATTGATATACGATCAATTGTTGTCGGTGATCGGAGTCACCTAGTGCAG
3. ATGATTTTGTTTTGTTTTGCGAATAATTTTGGCGCCTCAACGGAGTCACCTAGTGCAG

11500 fluorescence intensity (a.u.)
14000 fluorescence intensity (a.u.)
6150 fluorescence intensity (a.u.)

Dear colleague, could you please provide binding signal for the sequences listed below?
1. CTTGTATGTTTGTGGATTGATATATTATATATTGATATATCGGAGTCACCTAGTGCAG
2. CACCAATTTGATTGTTTTATTATTTTAAATCTTCAGTACTCGGAGTCACCTAGTGCAG
3. ATTTTGTGGTAATCTATACAAATTACTATATCCCCAATTGCGGAGTCACCTAGTGCAG
4. CAACGCCTGTAATTGCTCCTCCTGGCATGCAAGCCTTGTCCGGAGTCACCTAGTGCAG
5. GTAAATTGTTTACTATCGAATGTACATGCTATATATATTGCGGAGTCACCTAGTGCAG
6. CTAAACACGTCCTATCATGTCACGTAGATAATATGACACGCGGAGTCACCTAGTGCAG

["6720 fluorescence intensity (a.u.)", "14200 fluorescence intensity (a.u.)", "4670 fluorescence intensity (a.u.)", "5050 fluorescence intensity (a.u.)", "20400 fluorescence intensity (a.u.)", "4110 fluorescence intensity (a.u.)"]

Dear colleague, could you please provide binding signal for the sequences listed below?
1. CTCCGATTAATGTGGAAATTTCTAACCTCTACAGCGAACGCGGAGTCACCTAGTGCAG
2. TGAGCTGATTGATCGTCTGAAGGGTGTCTGATTGTCAAGTCGGAGTCACCTAGTGCAG

1. 6190 fluorescence intensity (a.u.)
2. 52800 fluorescence intensity (a.u.)

Dear colleague, could you please provide binding signal for the sequences listed below?
1. TGCTGGATTGTATTGATGTGTGTGCTTACCTAGTATAAATCGGAGTCACCTAGTGCAG
2. TGTTAGATTTAATGTAATTGATTTGATATTTTAGATATTGCGGAGTCACCTAGTGCAG
3. ACTTGTGTGATGTTTGGATTGATGCCAAAACTTGCCAAATCGGAGTCACCTAGTGCAG
4. ACGAATCTATTGAGCCTAATTAATTCATAATTAGTCTATGCGGAGTCACCTAGTGCAG
5. AATATGATTGCTTTGTGGGTGTATGGTTCATTTTCAATGGCGGAGTCACCTAGTGCAG

1: 3580 fluorescence intensity (a.u.); 2: 49700 fluorescence intensity (a.u.); 3: 3930 fluorescence intensity (a.u.); 4: 14600 fluorescence intensity (a.u.); 5: 47700 fluorescence intensity (a.u.)

Dear colleague, could you please provide binding signal for the sequences listed below?
1. TTTCAGTTATTTCCTAATTATATTTCTATATGGACTTAGTCGGAGTCACCTAGTGCAG
2. AAAATAAATTGACAACATTCGTACAATATATATAAATATCCGGAGTCACCTAGTGCAG
3. TTACGATGATATATAATTGGACGGAAGCAGCGATCATGCTCGGAGTCACCTAGTGCAG

1. 9980 fluorescence intensity (a.u.)
2. 25900 fluorescence intensity (a.u.)
3. 14100 fluorescence intensity (a.u.)
